Target: Prostaglandin G/H synthase 2 (Homo sapiens)
Sequence (P35354 whole entry): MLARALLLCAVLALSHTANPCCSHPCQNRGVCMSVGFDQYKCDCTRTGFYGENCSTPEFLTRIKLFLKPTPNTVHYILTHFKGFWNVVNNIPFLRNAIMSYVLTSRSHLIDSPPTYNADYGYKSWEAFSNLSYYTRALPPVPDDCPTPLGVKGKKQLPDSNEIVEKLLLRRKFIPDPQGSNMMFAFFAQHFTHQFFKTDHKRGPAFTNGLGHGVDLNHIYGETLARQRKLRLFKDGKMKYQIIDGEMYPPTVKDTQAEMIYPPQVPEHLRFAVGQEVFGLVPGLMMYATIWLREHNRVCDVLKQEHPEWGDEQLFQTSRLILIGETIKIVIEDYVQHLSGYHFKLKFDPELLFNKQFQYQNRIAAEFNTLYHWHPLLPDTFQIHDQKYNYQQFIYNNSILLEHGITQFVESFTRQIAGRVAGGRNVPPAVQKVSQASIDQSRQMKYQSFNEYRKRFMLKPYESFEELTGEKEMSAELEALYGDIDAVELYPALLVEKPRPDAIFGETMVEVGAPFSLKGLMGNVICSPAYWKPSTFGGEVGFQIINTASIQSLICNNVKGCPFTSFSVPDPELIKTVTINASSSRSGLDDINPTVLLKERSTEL
Readout: pIC50
Answers are plain numbers, as −log10 of the molar value.

What pIC50 value was documented for this molecule, `CCCCC(=C(c1ccccc1)c1ccccc1)c1ccc(S(C)(=O)=O)cc1` ?
7.85

* * *

Provide the reported inhibition of each item.
biological target: Estrogen receptor beta (Homo sapiens) (UniProt Q92731); assay: Displacement of [3H]-estradiol from human recombinant ERbeta expressed in Sf21 cells at 10 uM after 2 hrs
Sequence (Q92731 whole entry): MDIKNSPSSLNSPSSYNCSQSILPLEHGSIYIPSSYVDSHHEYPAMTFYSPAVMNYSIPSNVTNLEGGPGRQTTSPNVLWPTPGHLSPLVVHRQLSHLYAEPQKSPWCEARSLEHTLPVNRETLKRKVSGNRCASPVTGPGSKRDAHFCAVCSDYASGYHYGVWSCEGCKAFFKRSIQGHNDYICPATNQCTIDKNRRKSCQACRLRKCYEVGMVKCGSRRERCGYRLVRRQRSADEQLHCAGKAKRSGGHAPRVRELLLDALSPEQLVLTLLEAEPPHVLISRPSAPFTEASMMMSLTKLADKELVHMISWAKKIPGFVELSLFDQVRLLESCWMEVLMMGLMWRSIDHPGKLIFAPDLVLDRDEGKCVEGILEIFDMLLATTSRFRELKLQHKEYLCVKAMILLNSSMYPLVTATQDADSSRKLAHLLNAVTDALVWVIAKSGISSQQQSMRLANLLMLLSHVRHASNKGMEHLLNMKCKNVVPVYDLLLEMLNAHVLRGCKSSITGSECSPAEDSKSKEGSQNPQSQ
One number for each entry, in %.

Here is how some compounds turned out for inhibition.
>  <Compound>
CCCCC(=C(c1ccccc1)c1ccccc1)c1ccc([S+](C)([O-])=NC#N)cc1 (centres undefined)

>  <Unit Of Measurement>
%

>  <Result Value>
60

$$$$
>  <Compound>
CC(=C(c1ccccc1)c1ccccc1)c1ccc([S+](C)(=N)[O-])cc1 (centres undefined)

>  <Unit Of Measurement>
%

>  <Result Value>
53

$$$$
>  <Compound>
CCCCC(=C(c1ccccc1)c1ccccc1)c1ccc([S+](C)(=N)[O-])cc1 (centres undefined)

>  <Unit Of Measurement>
%

>  <Result Value>
80

$$$$

Which value of inhibition has been reported for `CCCCC(=C(c1ccccc1)c1ccccc1)c1ccc(S(C)(=O)=O)cc1` in the records?
77

* * *

biological target: Estrogen receptor (Homo sapiens) (UniProt P03372); test: Displacement of [3H]-estradiol from human recombinant ERalpha expressed in Sf21 cells at 10 uM after 2 hrs
Sequence (P03372 whole entry): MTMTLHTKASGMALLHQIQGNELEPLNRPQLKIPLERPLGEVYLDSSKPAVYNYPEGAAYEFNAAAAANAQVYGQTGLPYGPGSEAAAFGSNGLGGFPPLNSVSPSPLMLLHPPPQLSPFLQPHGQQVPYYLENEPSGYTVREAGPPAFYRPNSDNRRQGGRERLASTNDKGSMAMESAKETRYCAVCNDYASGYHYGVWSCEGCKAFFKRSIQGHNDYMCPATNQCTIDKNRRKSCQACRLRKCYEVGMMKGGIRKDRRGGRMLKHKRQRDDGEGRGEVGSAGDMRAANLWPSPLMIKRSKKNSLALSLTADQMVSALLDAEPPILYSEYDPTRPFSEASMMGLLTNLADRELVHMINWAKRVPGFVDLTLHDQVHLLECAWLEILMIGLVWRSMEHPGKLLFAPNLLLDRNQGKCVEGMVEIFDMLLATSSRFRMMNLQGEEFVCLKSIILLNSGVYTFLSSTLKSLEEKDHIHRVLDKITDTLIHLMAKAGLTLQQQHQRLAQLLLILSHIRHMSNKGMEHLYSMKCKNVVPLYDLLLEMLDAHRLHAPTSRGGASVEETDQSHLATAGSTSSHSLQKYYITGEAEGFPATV
Readout: inhibition (%)
Answers are plain numbers, in %.

Below, each entry is followed by its recorded inhibition result.
>  <Molecule>
CCCCC(=C(c1ccccc1)c1ccccc1)c1ccc(S(C)(=O)=O)cc1

>  <Test System>
Estrogen receptor (Homo sapiens) (UniProt P03372)

>  <inhibition, %>
-6

$$$$
>  <Molecule>
CCCCC(=C(c1ccccc1)c1ccccc1)c1ccc([S+](C)([O-])=NC#N)cc1 (centres undefined)

>  <Test System>
Estrogen receptor (Homo sapiens) (UniProt P03372)

>  <inhibition, %>
54

$$$$
>  <Molecule>
CC(=C(c1ccccc1)c1ccccc1)c1ccc([S+](C)(=N)[O-])cc1 (centres undefined)

>  <Test System>
Estrogen receptor (Homo sapiens) (UniProt P03372)

>  <inhibition, %>
77

$$$$

Now let's try a different one.
Given the entry CCCCC(=C(c1ccccc1)c1ccccc1)c1ccc([S+](C)(=N)[O-])cc1 (centres undefined) , report its measured inhibition.
91
